FYI, the data here is from patent US6818765B1.

assay.target: thromboxane A2 receptors (TPα) of human platelets (Homo sapiens)
Construct: endogenous in cells; host or cells: human platelets
Sequence (P21731 whole entry): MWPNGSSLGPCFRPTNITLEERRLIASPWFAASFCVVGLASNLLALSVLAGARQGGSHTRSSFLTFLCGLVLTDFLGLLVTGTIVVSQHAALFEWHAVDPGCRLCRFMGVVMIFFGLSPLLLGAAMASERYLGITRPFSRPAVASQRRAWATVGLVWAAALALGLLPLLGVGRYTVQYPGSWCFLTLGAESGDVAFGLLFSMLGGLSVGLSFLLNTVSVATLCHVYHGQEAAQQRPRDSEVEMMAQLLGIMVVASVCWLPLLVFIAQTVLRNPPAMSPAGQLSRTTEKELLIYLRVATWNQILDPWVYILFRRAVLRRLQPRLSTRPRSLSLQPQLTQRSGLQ
test: Binding test: displacement of [3H]SQ-29.548 from human platelet thromboxane A2 receptors
condition.notes: read-out: Affinity: percent of [3H]SQ-29.548 specifically substituted by the examined compound, compound 10^-7 M
Output y for inhibition at 0.1 µM not less than 80%; output n otherwise.

| compound | group.label |
| --- | --- |
| CCCCCCNC(=O)NS(=O)(=O)c1cc([N+](=O)[O-])ccc1NC1CCCCC1 | y |
| O=C(O)COc1ccc(CCNS(=O)(=O)c2ccccc2)cc1 [SULOTROBAN, sulotroban, reference compound] | n |
| CCCCCCCNC(=O)NS(=O)(=O)c1cc([N+](=O)[O-])ccc1NC1CCCCC1 | n |
| Cc1cc(C)c(Nc2ccc([N+](=O)[O-])cc2S(=O)(=O)NC(=O)NC(C)C)c(C)c1 | y |
| O=C(NC1CCCCC1)NS(=O)(=O)c1cc([N+](=O)[O-])ccc1NC1CCCCC1 | y |

Prompt: Confirm if inhibition at 0.1 µM reported for the compound CCCCCCCCNC(=O)NS(=O)(=O)c1cc([N+](=O)[O-])ccc1NC1CCCCC1 is 80% or above.
Completion: n

Prompt: Confirm if inhibition at 0.1 µM reported for the compound Cc1cccc(Nc2ccc([N+](=O)[O-])cc2S(=O)(=O)NC(=O)NC(C)(C)C)c1C is 80% or above.
Completion: y
